Value source: PubChem BioAssay (NCI)

Tested on: ACHN renal
Assay: NCI tumour cell line growth inhibition, 48 h; in the data active = GI50 below about 0.43 µM; inactive = the rest
# output must be one of active, inactive

molecule="O=C1OC(C(O)CO)C(=O)C1=O (stereo unspecified)" category_label=inactive
molecule=COc1cc2ncnc(Nc3ccc(C)c(O)c3)c2cc1OC category_label=inactive

Here's the next entry for you.
What did this assay record as the result for COC(=O)[C@H](C)NC(=O)NC(=O)NC(=O)CI ? inactive

====

Test system: BT-549 breast
Assay: NCI tumour cell line growth inhibition, 48 h
Entries and their TGI values follow.
Use µM as the unit, but write only the number.

compound="COc1cccc2c1C(=O)c1c(O)c3c(c(O)c1C2=O)C[C@@](O)(C(C)=O)C[C@@H]3OC1OC(C)C(O)C(N)C1Br (stereo partly drawn)" numeric_result=0.913
compound="Cc1ccc([N+](=O)[O-])cc1S(=O)(=O)Nc1ccc(C2=NNC(c3ccccc3)C2)cc1 (stereo not drawn)" numeric_result=52
compound=Oc1ccc(-c2nc(-c3cccnc3)c(-c3ccc(Cl)cc3)[nH]2)cc1 numeric_result=29
compound=Oc1c(CN2CCOCC2)ccc2cccnc12 numeric_result=8.26

Look up and state reported TGI for CCOC(=O)c1c(C)n(Cc2ccc(Cl)cc2Cl)c2c1c(CN(C)C)c(O)c1[nH]cnc12 48.5

Given the compound O=C(N/N=C/c1ccc(Cl)cc1)c1ccc(C(F)(F)F)nc1Nc1cccc(C(F)(F)F)c1 , write its reported TGI. 11.7

====

Test system: SF-268 CNS
Experiment: NCI tumour cell line growth inhibition, 48 h
# TGI values compiled below

Record excerpt, results attached:
compound=Cc1ccc(C2=C(c3ccccc3)C(Br)(c3ccc(C)cc3)C(c3ccccc3)=C2c2ccc(C)cc2)cc1 target_system="SF-268 CNS" result="> 100 µM"
compound=O=Cc1c(C(=O)O)[nH]c(=O)[nH]c1=O target_system="SF-268 CNS" result="> 100 µM"
compound="COC1(OC)C2(Cl)C(Cl)=C(Cl)C1(Cl)C1C=CC=CC12 (stereo not given)" target_system="SF-268 CNS" result="> 100 µM"
compound=CCOCc1nc2c(OC)cc(-c3nc4ccc(N5CCN(C)CC5)cc4[nH]3)c(OC)c2[nH]1 target_system="SF-268 CNS" result="> 100 µM"
compound="CCOC(=O)c1cc(C(O)P2(=O)N(CC(C)(C)C)[C@@H]3CCCC[C@H]3N2CC(C)(C)C)cn1C(=O)OC(C)(C)C (stereo not given in full)" target_system="SF-268 CNS" result="38.4 µM"
compound="Cc1cn(C2CC(O)C(CO)O2)c(=O)n2nnnc12 (stereo not given)" target_system="SF-268 CNS" result="> 100 µM"

Continue with the next compound.
Provide the reported TGI (system: SF-268 CNS) for CN1C(=O)c2cccc3cc([N+](=O)[O-])cc(c23)C1=O > 10 µM

====

System: HCC-2998 colon
Assay: NCI tumour cell line growth inhibition, 48 h
metric: TGI

Consider the following illustrative entries.
compound=O=C1/C(=N/O)Cc2c(Br)ccc(Br)c21 result="> 100 µM"
compound=c1ccc2c(c1)ccn2CCc1c[nH]c2ccccc12 result="> 10 µM"
compound=Cc1nc(N)sc1C(=O)/C=C\c1ccc2c(c1)OCO2 result="> 100 µM"

Consider the compound Clc1nc(Cl)c(Cl)c(-c2ccccc2)n1 . State its measured TGI. 78 µM

Fill in reported TGI for this entry: COC[C@@H](C[C@H]1O[C@@](O)([C@H](O)[C@@H]2C[C@H](OC)[C@@H](O)CC/C=C(C)/C=C/[C@@H](O[C@@H]3O[C@@H](C)[C@H](OC)[C@@H](O)[C@@H]3O)[C@H](C)/C=C(C)/C=C(C)/C=C(\C)C(=O)O2)[C@H](C)[C@@H](O)[C@H]1C)O[C@H]1C[C@](C)(O)[C@@H](O[C@H]2C[C@@H](OC)[C@H](O)[C@@H](C)O2)C(C)O1 (stereo not given in full) > 100 µM

Output measured TGI for this item: CSc1ncnc2c1ncn2C1CC(Oc2ccc(C)cc2)C(COc2ccc(C)cc2)O1 (stereo not given) > 100 µM

Supply recorded TGI for Cc1ccc(SCC(CF)OC(C)n2cnc3c(=O)[nH]c(N)nc32)cc1 (stereo not given) here. > 100 µM

Indicate its recorded TGI; the compound in question is Nc1cc2[nH]c(=O)c(=O)[nH]c2cc1N > 100 µM

Given the compound CC1NC(=O)CC(c2ccccc2)N(N=O)C1c1ccccc1 (stereo not given) , write its reported TGI. > 100 µM

Determine its reported TGI: NS(=O)(=O)c1ccc(N=Nc2c(O)[nH]c3ccc(-c4cnco4)cc23)cc1 > 25 µM

====

Test system: MCF7 breast
Experiment: NCI tumour cell line growth inhibition, 48 h
metric: TGI

Consider the compound CC(C)[Si](OC1=C(C(=O)N(C)c2cccc(Cl)c2)CCCC1)(C(C)C)C(C)C . State its measured TGI. 29.2 µM

Give recorded TGI. CC1(C)NC2C(=O)c3c([nH]c4ccccc34)[C@]3(C)CCC1CC23 (stereo partly specified) > 100 µM

Tell me TGI reported for O=S(=O)(N=S(c1ccccc1)c1ccccc1)c1ccccc1 > 100 µM

Return the recorded TGI value; entry: CCOC(=O)C(=Cc1[nH]c2ccccc2c1-c1c[nH]c2ccccc12)C(=O)OCC 22.2 µM

State its TGI for this compound: CCOc1cn(C2CC(O)C(CO)O2)c(=O)[nH]c1=O (stereo unspecified) > 100 µM

Please indicate TGI recorded for O=C(N/N=C/c1ccccc1)c1c(-c2cccnc2)cnc2ccccc12 > 100 µM

====

System: MDA-MB-435
Experiment: NCI tumour cell line growth inhibition, 48 h
Reported TGI values for the following compounds.

Previously resolved entries follow.
compound=O=Cc1ccc2c(c1)CC1(Cc3ccccc3C1)C2 target_system=MDA-MB-435 result="37.6 µM"
compound=CC(=O)/C(C)=N/NC(=O)c1ccccc1O target_system=MDA-MB-435 result="> 100 µM"
compound=CN1CCC(O)(C(C)(C)C)CC1 target_system=MDA-MB-435 result="> 100 µM"
compound=Cc1cc(S(=O)(=O)N=C2N(Cc3ccccc3)CCN2Cc2ccccc2)c(S)cc1Cl target_system=MDA-MB-435 result="> 100 µM"
compound="N#CC(NNC(=O)Cc1ccccc1)c1c(O)ccc2ccccc12 (stereo unspecified)" target_system=MDA-MB-435 result="84.1 µM"

Consider the additional compound presented here.
Tell me its TGI given COc1ccc2ccccc2c1/C=C/C(=O)c1ccccc1 as the entry. 7.18 µM

====

Parameter: TGI. Scope: all listed entries.
Tested on: SK-MEL-2 melanoma
Assay: NCI tumour cell line growth inhibition, 48 h

Some compounds with recorded TGI:
compound=CCN(CC)C(=O)Cn1c(C)cc2ccccc21 result="> 100 µM"
compound=C(=Nc1ccc(-c2nc3ccccc3[nH]2)cc1)c1cccs1 result="> 100 µM"
compound=Oc1ccccc1C(Sc1nc2ccccc2s1)Sc1nc2ccccc2s1 result="> 100 µM"
compound=O=C(N/N=C/c1ccc(Cl)cc1)c1ccc(C(F)(F)F)nc1Nc1cccc(C(F)(F)F)c1 result="7.91 µM"
compound="C=CC(CCc1ccc(C(=O)OCC)cc1)c1c(N)nc(N)[nH]c1=O (stereo not drawn)" result="> 100 µM"
compound="COc1cc(C(C)O)c[n+](CCc2c[nH]c3ccccc23)c1 (stereo not drawn)" result="> 100 µM"
compound="Cc1ccc2c(c1)C(C(=O)N[C@@H]1C(=O)N3[C@@H]1SC(C)(C)[C@@H]3C(=O)O)OCCC2 (stereo partly drawn)" result="> 100 µM"
compound=CCOC(=O)CNc1c(OCc2ccccc2)c(=O)c1=O result="> 100 µM"
compound=Cc1ccc(C(=O)CN(/C=C/C(=O)C(F)(F)F)c2ccc(S(N)(=O)=O)cc2)cc1 result="> 100 µM"
compound=Oc1c(CN2CCOCC2)ccc2cccnc12 result="> 10 µM"

In one line, give reported TGI of the entry Cc1cn(C2CC(O)C(CO)O2)c(=O)n2nnnc12 (stereo not drawn) . > 100 µM

Complete the entry with TGI for COC1(OC)C2(Cl)C(Cl)=C(Cl)C1(Cl)C1C=CC=CC12 (stereo not drawn) 63 µM

State its TGI: CN1CCC(O)(C(C)(C)C)CC1 > 100 µM

====

Tested on: DMS 273 small cell lung
Assay: NCI tumour cell line growth inhibition, 48 h
metric: TGI

Solved entries:
compound="COc1cc(C(C)O)c[n+](CCc2c[nH]c3ccccc23)c1 (stereo not given)" metric=TGI result="> 100 µM"
compound="CCOC(=O)CC1(C(=O)OCC)c2[nH]c3ccccc3c2CCN1Cc1ccccc1 (stereo not given)" metric=TGI result="32 µM"
compound=Cc1ccn2c(c1)nc1nc3ccccc3nc12 metric=TGI result="> 100 µM"
compound=Nn1c(=O)n(Cc2ccccc2)n(-c2ccccc2)c1=O metric=TGI result="> 100 µM"

# return recorded TGI for input O=C1OC(c2ccccc2)=N/C1=C\c1cccc2ccccc12 > 100 µM
